IC50 values for MERTK (Homo sapiens, UniProt Q12866) compiled from several publications are listed below.

Consider the worked cases shown below.
CC(C)(C)c1ccc(-c2nnc(-c3cc(-c4cn[nH]c4)cnc3N)o2)cc1 : > 10000 nM
COC[C@H](C)Nc1ncc2c(-c3cnn([C@@H]4CCOC4)c3)cc([C@H]3CC[C@H](O)CC3)n2n1 : ≤ 100 nM
CCCC(C)Nc1ncc2c(N3CCC[C@@H](N(C)C)C3)ncc([C@H]3CC[C@H](O)CC3)c2n1 (stereo partly drawn) : ≤ 100 nM

stdin: Query (molecule): Nc1ncc(-c2cn[nH]c2)cc1-c1nnc(-c2ccc(F)cc2)o1 ; field requested: IC50
stdout: 500 to 1000 nM

stdin: Query (molecule): COC[C@H](C)Nc1ncc2c(-c3cccc(CN4CCN(C)CC4)c3)cc([C@H]3CC[C@H](O)CC3)n2n1 ; field requested: IC50
stdout: ≤ 100 nM

stdin: Query (molecule): CC(C)(C)OC(=O)N1CCC(n2cc(-c3cnc(N)c(-c4ncc(-c5ccccc5)o4)c3)cn2)CC1 ; field requested: IC50
stdout: 1000 to 10000 nM

stdin: Query (molecule): COC[C@H](C)Nc1ncc2c(-c3ccnc(O[C@H]4CCCNC4)c3)cc([C@H]3CC[C@H](O)CC3)n2n1 ; field requested: IC50
stdout: ≤ 100 nM

stdin: Query (molecule): COC[C@H](C)Nc1ncc2c(-c3cnn([C@@H]4CCN(C(C)=O)C4)c3)cc([C@H]3CC[C@H](O)CC3)n2n1 ; field requested: IC50
stdout: ≤ 100 nM
